molecular target: AgBbc1; test: SPOT peptide array binding signal intensity (averaged, normalized) (arbitrary units (background-subtracted, floor 0; scale differs between SH3 domains)); higher = stronger binding of the SH3 domain to the peptide
Please respond with reported SPOT peptide array binding signal intensity for every item in the list.

Q: Fill in the blank: the reported SPOT peptide array binding signal intensity of "ATNVPVAPPPPPASL" is ____.
Ans: 2.75

Q: Try the binder "NRLRKRLNLPSEISI"
Ans: 2

Q: Ok, now "RKLRTVPGVPLIHLT"
Ans: 40.8

Q: Query "QLMKNLPKIPLLNDI" next
Ans: 5.5
